tested.on: Peroxisome proliferator-activated receptor gamma (Homo sapiens, UniProt P37231)
Sequence (P37231 whole entry, the tested form may be a part): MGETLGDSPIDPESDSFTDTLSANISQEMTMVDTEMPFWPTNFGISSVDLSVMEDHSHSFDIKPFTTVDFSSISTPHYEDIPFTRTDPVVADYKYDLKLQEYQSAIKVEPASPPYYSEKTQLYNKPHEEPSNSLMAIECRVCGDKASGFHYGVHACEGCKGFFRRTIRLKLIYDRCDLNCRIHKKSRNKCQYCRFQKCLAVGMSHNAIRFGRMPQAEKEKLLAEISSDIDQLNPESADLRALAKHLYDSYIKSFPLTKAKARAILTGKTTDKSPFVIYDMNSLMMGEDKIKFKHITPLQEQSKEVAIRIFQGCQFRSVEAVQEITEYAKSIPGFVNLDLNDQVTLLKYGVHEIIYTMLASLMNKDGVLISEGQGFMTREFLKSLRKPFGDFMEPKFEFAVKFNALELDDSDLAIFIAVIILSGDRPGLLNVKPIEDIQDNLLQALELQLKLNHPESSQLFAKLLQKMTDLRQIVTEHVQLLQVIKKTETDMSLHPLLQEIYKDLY
protocol: Binding affinity to GST-tagged human PPARgamma LBD by ligand displacement assay
Recorded measurements of IC50, one per entry
Respond with the bare value in µM.

// below: answered molecules
CC(C)N(Cc1ccc(CCC(=O)O)cc1)C(=O)c1cccc(CNC(=O)c2ccccc2)c1	38.7
CCN(Cc1cccc(C(=O)N(CC)Cc2ccc(CCC(=O)O)cc2)c1)C(=O)c1ccccc1	56.2

Recorded IC50 for `O=C(O)CCc1ccc(CNC(=O)c2cccc(CNC(=O)c3ccccc3)c2)cc1` , please?
62.7

----------
tested.on: Peroxisome proliferator-activated receptor gamma (Homo sapiens)
protocol: Transactivation of human PPARgamma LBD transfected in mouse embryo fibroblasts at 100 uM after 18 hrs by Gal4-responsive luciferase reporter gene assay relative to vehicle-treated control
Recorded measurements of fold change (FC), one per entry
// no unit, no text: just the number

Recorded fold change (FC) for `CC(C)N(Cc1ccc(C(=O)NCc2ccc(CCC(=O)O)cc2)cc1)C(=O)c1ccccc1` , please?
5.7

Recorded fold change (FC) for `CCN(Cc1cccc(C(=O)N(Cc2ccc(CCC(=O)O)cc2)C(C)C)c1)C(=O)c1ccccc1` , please?
5.8

Recorded fold change (FC) for `CCN(Cc1ccc(CCC(=O)O)cc1)C(=O)c1ccc(CN(C(=O)c2ccccc2)C(C)C)cc1` , please?
3.6

Recorded fold change (FC) for `CC(C)N(Cc1cccc(C(=O)N(Cc2ccc(CCC(=O)O)cc2)C(C)C)c1)C(=O)c1ccccc1` , please?
5.3

Recorded fold change (FC) for `CC(C)N(Cc1ccc(CCC(=O)O)cc1)C(=O)c1ccc(CNC(=O)c2ccccc2)cc1` , please?
12.6

Recorded fold change (FC) for `CC(C)N(Cc1ccc(C(=O)N(Cc2ccc(CCC(=O)O)cc2)C(C)C)cc1)C(=O)c1ccccc1` , please?
14.7

Recorded fold change (FC) for `CCN(Cc1cccc(C(=O)NCc2ccc(CCC(=O)O)cc2)c1)C(=O)c1ccccc1` , please?
9.3

Recorded fold change (FC) for `CCN(Cc1ccc(C(=O)N(Cc2ccc(CCC(=O)O)cc2)C(C)C)cc1)C(=O)c1ccccc1` , please?
6.9

Recorded fold change (FC) for `CCN(Cc1ccc(CCC(=O)O)cc1)C(=O)c1ccc(CNC(=O)c2ccccc2)cc1` , please?
6.2

Just for reference, ChEMBL document CHEMBL2401657 is where these values come from.
